Assign self-splicing fitness (ln) to each entry below.
Assay: self-splicing fitness, log relative to wild type (ln ratio); higher = more splicing; Tetrahymena group I intron in knt gene, E. coli kanamycin selection, DiMSum; sequences stand for … in CUCUCU…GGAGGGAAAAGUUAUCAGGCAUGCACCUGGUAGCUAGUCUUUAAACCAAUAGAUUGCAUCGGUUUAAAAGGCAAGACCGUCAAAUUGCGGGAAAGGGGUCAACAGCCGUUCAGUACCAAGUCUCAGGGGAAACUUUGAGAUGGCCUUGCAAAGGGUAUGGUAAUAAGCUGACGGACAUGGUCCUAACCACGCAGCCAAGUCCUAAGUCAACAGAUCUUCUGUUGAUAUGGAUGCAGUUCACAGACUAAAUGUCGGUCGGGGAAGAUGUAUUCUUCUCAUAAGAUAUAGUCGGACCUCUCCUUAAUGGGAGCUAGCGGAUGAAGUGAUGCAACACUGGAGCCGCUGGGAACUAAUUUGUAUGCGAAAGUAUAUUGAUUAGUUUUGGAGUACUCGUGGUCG;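 also: selection with 25 µg/mL kanamycin versus none on LB agar overnight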
Conditions: 30 °C
Kindly provide the number alone.

Quick note, self-splicing fitness (ln) for CUAAAGCAAUAUUACGUCAC landed at -2.66

For this sequence ( AUGUAGCAAUAUUACGAUCG ), measured self-splicing fitness (ln) is -2.2

For UGUCAGCAAUAUUACGCUUA the sequence record lists self-splicing fitness (ln) as -0.0584

self-splicing fitness (ln) recorded for this sequence, AAUAAGCAAUAUUACGGGUA , is -2.49

Entry under test: AGUUAGCAAUAUUACGCCGA . Its self-splicing fitness (ln) was -2.78

Per the records, this sequence ( CAACAGCAAUAUUACGACGU ) has self-splicing fitness (ln) equal to -0.776

Reported self-splicing fitness (ln) ( GAAUAGCAAUAUUACGCCUU ) = -0.0381

Measured self-splicing fitness (ln), GGCAAGCAAUAUUACGCCAU : -2.4

According to the records, this sequence AAAUAGCAAUAUUACGUCGC displays self-splicing fitness (ln) of -2.54

Lab note: AACUAGCAAUAUUACGAAAC gave self-splicing fitness (ln) of -3.3

Lab note: measured self-splicing fitness (ln) of UUCCAGCAAUAUUACGCCAA was -0.739

Reported self-splicing fitness (ln) ( ACAAAGCAAUAUUACGGAGU ) = -3.79

For reference, reported self-splicing fitness (ln) for GGGCAGCAAUAUUACGCGGA stands at -1.23

self-splicing fitness (ln) in this record for GAAAAGCAAUAUUACGAGGU : -3.97

Reported self-splicing fitness (ln) ( AUGAAGCAAUAUUACGACCC ) = -1.6

Reported self-splicing fitness (ln) ( CAACAGCAAUAUUACGAUCU ) = -2.02

Entry CACGAGCAAUAUUACGGAGU , self-splicing fitness (ln) reported as -4.82

Sure, the documented self-splicing fitness (ln) for CGACAGCAAUAUUACGACCG is -0.981

self-splicing fitness (ln) measured on ACUCAGCAAUAUUACGAGCG = -0.49

Noted for AUACAGCAAUAUUACGUUCA : its self-splicing fitness (ln) reads -0.878

AAAGAGCAAUAUUACGGACU has a reported self-splicing fitness (ln) of -1.36

The value of self-splicing fitness (ln) measured for the sequence CACAAGCAAUAUUACGCAGC turned out to be -3.48

Sure, the documented self-splicing fitness (ln) for CUGCAGCAAUAUUACGAACU is -2.75

Record UGAAAGCAAUAUUACGCAUU . Reported self-splicing fitness (ln): -3.13

Briefly, self-splicing fitness (ln) measured for UUGUAGCAAUAUUACGUUUC : -3.69

In plain terms, CCAUAGCAAUAUUACGGCGA has a documented self-splicing fitness (ln) of -2.03

// recorded self-splicing fitness (ln) for GUCAAGCAAUAUUACGAAUC : -2.16

Entry CACAAGCAAUAUUACGUGUC — recorded self-splicing fitness (ln) = -3.86

self-splicing fitness (ln) for CUCAAGCAAUAUUACGCGUA is -3.49

In plain terms, CCUUAGCAAUAUUACGGAAG has a documented self-splicing fitness (ln) of -2.61

The value of self-splicing fitness (ln) measured for the sequence GCGUAGCAAUAUUACGUUAC turned out to be -2.56

So, GCAAAGCAAUAUUACGUCGA ? Its self-splicing fitness (ln) was -1.83

Lookup result for UAGAAGCAAUAUUACGUGGU ; measured self-splicing fitness (ln): -3.52

The sequence listed as GCUGAGCAAUAUUACGUGGG shows self-splicing fitness (ln) equal to -2.02
